# credit: paper PMC3681905

- Test system: influenza A virus A/Aichi/2/68 (H3N2)
- Procedure Text: microbe, parasite or virus in culture
- Assay type: cell-based
- Run Conditions: Influenza A virus, H3N2, MDCK, 24 h; read-out: IC50 H3N2 Aichi strain

Compound: O=C(O)CN1C(C(=O)O)C23c4c5c6c7c8c9c(c%10c%11c2c2c4c4c%12c5c5c6c6c8c8c%13c9c9c%10c%10c%11c%11c2c2c4c4c%12c%12c5c5c6c8c6c8c%13c9c9c%10c%10c%11c2c2c4c4c%12c5c6c5c8c9c%10c2c45)C73C1C(=O)O (stereo not drawn) [no. 4]
Assay System: influenza A virus A/Aichi/2/68 (H3N2)
IC50: 91 µM
//
Compound: CC(C)C1NC(C(=O)O)C23c4c5c6c7c8c9c(c%10c%11c2c2c4c4c%12c5c5c6c6c8c8c%13c9c9c%10c%10c%11c%11c2c2c4c4c%12c%12c5c5c6c8c6c8c%13c9c9c%10c%10c%11c2c2c4c4c%12c5c6c5c8c9c%10c2c45)C713 (stereo not drawn) [no. 5]
Assay System: influenza A virus A/Aichi/2/68 (H3N2)
IC50: > 100 µM
//
Compound: CCOC(=O)CN1C(C(=O)O)C23c4c5c6c7c8c9c(c%10c%11c2c2c4c4c%12c5c5c6c6c8c8c%13c9c9c%10c%10c%11c%11c2c2c4c4c%12c%12c5c5c6c8c6c8c%13c9c9c%10c%10c%11c2c2c4c4c%12c5c6c5c8c9c%10c2c45)C73C1C(=O)OCC (stereo not drawn) [no. 10]
Assay System: influenza A virus A/Aichi/2/68 (H3N2)
IC50: > 100 µM

###

- Tested on: influenza A virus A/PR/8/34 (H1N1)
- Procedure Text: microbe, parasite or virus in culture
- Type: cell-based
- Run Conditions: Influenza A virus, MDCK, 24 h; read-out: IC50 H1N1 PR8 strain
Some compounds, each annotated with its measured IC50.
Observed Property: IC50

Compound: O=C(O)CN1C(C(=O)O)C23c4c5c6c7c8c9c(c%10c%11c2c2c4c4c%12c5c5c6c6c8c8c%13c9c9c%10c%10c%11c%11c2c2c4c4c%12c%12c5c5c6c8c6c8c%13c9c9c%10c%10c%11c2c2c4c4c%12c5c6c5c8c9c%10c2c45)C73C1C(=O)O (centres unmarked)
Assay Value: 70 µM
--
Compound: O=C(O)CN1CCN(CC(=O)O)C23c4c5c6c7c8c9c(c%10c%11c2c2c4c4c%12c5c5c6c6c8c8c%13c9c9c%10c%10c%11c%11c2c2c4c4c%12c%12c5c5c6c8c6c8c%13c9c9c%10c%10c%11c2c2c4c4c%12c5c6c5c8c9c%10c2c45)C713 (centres unmarked)
Assay Value: > 100 µM

###

Some compounds, each annotated with its measured pIC50.
- Test system: influenza A virus A/PR/8/34 (H1N1)
- Procedure Text: microbe, parasite or virus in culture
- Assay type: cell-based
- Run Conditions: Influenza A virus, MDCK, 24 h; read-out: IC50 H1N1 PR8 strain
pIC50: −log10 of the molar value.
Observed Property: pIC50

Compound: CCOC(=O)CN1C(C(=O)O)C23c4c5c6c7c8c9c(c%10c%11c2c2c4c4c%12c5c5c6c6c8c8c%13c9c9c%10c%10c%11c%11c2c2c4c4c%12c%12c5c5c6c8c6c8c%13c9c9c%10c%10c%11c2c2c4c4c%12c5c6c5c8c9c%10c2c45)C73C1C(=O)OCC (centres unmarked) [no. 10]
Qualifier: <
Assay Value: 4.00
//
Compound: O=C(O)C1NC(c2ccccc2)C23c4c5c6c7c8c9c(c%10c%11c2c2c4c4c%12c5c5c6c6c8c8c%13c9c9c%10c%10c%11c%11c2c2c4c4c%12c%12c5c5c6c8c6c8c%13c9c9c%10c%10c%11c2c2c4c4c%12c5c6c5c8c9c%10c2c45)C713 (centres unmarked) [no. 11]
Qualifier: =
Assay Value: 4.36
//
Compound: CC(C)C1NC(C(=O)O)C23c4c5c6c7c8c9c(c%10c%11c2c2c4c4c%12c5c5c6c6c8c8c%13c9c9c%10c%10c%11c%11c2c2c4c4c%12c%12c5c5c6c8c6c8c%13c9c9c%10c%10c%11c2c2c4c4c%12c5c6c5c8c9c%10c2c45)C713 (centres unmarked) [no. 5]
Qualifier: =
Assay Value: 4.43
//
Compound: O=C(O)C1NC(C(=O)O)C23c4c5c6c7c8c9c(c%10c%11c2c2c4c4c%12c5c5c6c6c8c8c%13c9c9c%10c%10c%11c%11c2c2c4c4c%12c%12c5c5c6c8c6c8c%13c9c9c%10c%10c%11c2c2c4c4c%12c5c6c5c8c9c%10c2c45)C713 (centres unmarked) [no. 3]
Qualifier: <
Assay Value: 4.00
//
Compound: COC1Cc2cccc(c2)Oc2c(O)cccc2CCc2ccc(cc2)Oc2cc1cc(O)c2O (centres unmarked) [Marchantin E, reference compound]
Qualifier: =
Assay Value: 4.37

###

- Assay System: full-length PA protein of influenza A RNA polymerase (Influenza A virus, UniProt P03433)
- Procedure Text: in vitro PA endonuclease assay with recombinant full-length PA protein (M13 mp18 digestion)
- Type: biochemical, influenza A virus (A/PR/8/34 (H1N1))
- Run Conditions: 10 µM fullerene derivative; Fig. 3C
Observed Property: inhibition of the endonuclease activity of full-length PA (M13 mp18 band)

Compound: CCOC(=O)CN1C(C(=O)O)C23c4c5c6c7c8c9c(c%10c%11c2c2c4c4c%12c5c5c6c6c8c8c%13c9c9c%10c%10c%11c%11c2c2c4c4c%12c%12c5c5c6c8c6c8c%13c9c9c%10c%10c%11c2c2c4c4c%12c5c6c5c8c9c%10c2c45)C73C1C(=O)OCC (stereo not drawn)
Assay Value: inhibited
--
Compound: O=C(O)C1NC(c2ccccc2)C23c4c5c6c7c8c9c(c%10c%11c2c2c4c4c%12c5c5c6c6c8c8c%13c9c9c%10c%10c%11c%11c2c2c4c4c%12c%12c5c5c6c8c6c8c%13c9c9c%10c%10c%11c2c2c4c4c%12c5c6c5c8c9c%10c2c45)C713 (stereo not drawn)
Assay Value: inhibited
--
Compound: O=C(O)CN1CCN(CC(=O)O)C23c4c5c6c7c8c9c(c%10c%11c2c2c4c4c%12c5c5c6c6c8c8c%13c9c9c%10c%10c%11c%11c2c2c4c4c%12c%12c5c5c6c8c6c8c%13c9c9c%10c%10c%11c2c2c4c4c%12c5c6c5c8c9c%10c2c45)C713 (stereo not drawn)
Assay Value: inhibited
--
Compound: CCN1C(C(=O)O)C23c4c5c6c7c8c9c(c%10c%11c2c2c4c4c%12c5c5c6c6c8c8c%13c9c9c%10c%10c%11c%11c2c2c4c4c%12c%12c5c5c6c8c6c8c%13c9c9c%10c%10c%11c2c2c4c4c%12c5c6c5c8c9c%10c2c45)C73C1C(=O)O (stereo not drawn)
Assay Value: slightly inhibited
--
Compound: Oc1cc2c(cc1O)CC13c4c5c6c7c8c9c(c%10c%11c1c1c4c4c%12c5c5c6c6c8c8c%13c9c9c%10c%10c%11c%11c1c1c4c4c%12c%12c5c5c6c8c6c8c%13c9c9c%10c%10c%11c1c1c4c4c%12c5c6c5c8c9c%10c1c45)C73C2 (stereo not drawn)
Assay Value: slightly inhibited

###

- Assay System: PA N-terminal endonuclease domain (residues 1–220) of influenza A RNA polymerase (Influenza A virus, UniProt P03433)
- Procedure Text: in vitro PA endonuclease assay with recombinant PA endonuclease domain (M13 mp18 digestion, agarose electrophoresis)
- Type: biochemical, influenza A virus (A/PR/8/34 (H1N1))
- Run Conditions: 10 µM fullerene derivative; 0.1 µM recombinant PA endonuclease domain; Fig. 2C
Observed Property: inhibition of the digestion of M13 mp18 by the PA endonuclease domain

Compound: O=C(O)CN1CCN(CC(=O)O)C23c4c5c6c7c8c9c(c%10c%11c2c2c4c4c%12c5c5c6c6c8c8c%13c9c9c%10c%10c%11c%11c2c2c4c4c%12c%12c5c5c6c8c6c8c%13c9c9c%10c%10c%11c2c2c4c4c%12c5c6c5c8c9c%10c2c45)C713 (centres unmarked)
Assay Value: significantly inhibited
--
Compound: O=C(O)C1NC(c2ccccc2)C23c4c5c6c7c8c9c(c%10c%11c2c2c4c4c%12c5c5c6c6c8c8c%13c9c9c%10c%10c%11c%11c2c2c4c4c%12c%12c5c5c6c8c6c8c%13c9c9c%10c%10c%11c2c2c4c4c%12c5c6c5c8c9c%10c2c45)C713 (centres unmarked)
Assay Value: significantly inhibited
--
Compound: CCOC(=O)CN1C(C(=O)O)C23c4c5c6c7c8c9c(c%10c%11c2c2c4c4c%12c5c5c6c6c8c8c%13c9c9c%10c%10c%11c%11c2c2c4c4c%12c%12c5c5c6c8c6c8c%13c9c9c%10c%10c%11c2c2c4c4c%12c5c6c5c8c9c%10c2c45)C73C1C(=O)OCC (centres unmarked)
Assay Value: significantly inhibited
